# System: CCRF-CEM leukemia
# PROTOCOL DETAILS: NCI-60 one-dose screen, 48 h
# PROTOCOL CONDITIONS: 10 µM unless noted
Compounds without any hit were thinned out: in the full panel of roughly 83,000, 20% have a hit. Active and inactive are the calls of the source. How the source made its calls: active means growth percent below 10; inactive means the rest.
Outcomes: YES = active, NO = inactive

1. COc1cc2cc(Oc3ccc(NC(=O)c4cccc(C(F)(F)F)c4)cc3)c(C)nc2cc1OCCN1CCCCC1 : YES
2. CCN1CCN(/C(=N\c2sc(-c3ccccc3)nc2-c2ccccc2)c2ccccc2)CC1 : NO
3. Nc1nc(N)c2c(n1)NC(c1ccc(F)cc1)CC(c1ccc(Nc3nc(NCCO)nc(Nc4ccc(Cl)cc4)n3)cc1)=N2 (stereo not given) : YES
4. Cc1nc2cnc(N)c(C#Cc3cncc(C(=O)Nc4ccc(Cl)c(C(F)(F)F)c4)c3)c2nc1C : NO
5. COc1ccc(/C=N/NC(=O)c2[nH]c3ccc(Br)cc3c2-c2ccccc2)o1 : NO
6. CS(=O)(=O)c1ccc(-n2cc(/C=C/C(=O)c3ccc(NC(=O)CO[N+](=O)[O-])cc3)c(-c3ccc(Cl)cc3)n2)cc1 : NO
7. Cc1ccccc1NC(=O)/C=C/c1ccc(OCCOc2ccc3c(C)cc(=O)oc3c2)cc1 : NO
8. O=c1/c(=C\c2ccc(-c3ccccc3)o2)sc2nc(-c3ccccc3)nn12 : NO
9. COc1cccc(COc2ccc(/C=C3/C(=O)Nc4cc(Cl)ccc43)cc2)c1 : NO
10. CCOC(=O)c1c(Nc2ccccc2)nn2c(N)c(C#N)c(-c3ccc(F)cc3)nc12 : NO
11. COc1cc(/C=C/C(=O)c2ccc(Cl)cc2)ccc1Oc1nc(NCCO)nc(N2CCOCC2)n1 : NO
12. N#Cc1c(-c2ccc(Cl)cc2)nc(SCc2ccc(F)cc2)nc1N1CCNCC1 : NO
13. COc1ccc(/C=C/C(=O)c2ccc(NC(=O)CSc3nnc(-c4ccc5nc(-c6ccc(Cl)cc6)[nH]c5c4)o3)cc2)cc1 : NO
14. CCOC(=O)c1c(Nc2ccccc2)nn2c(N)c(C#N)c(-c3ccc(OC)cc3)nc12 : NO
15. COc1cc(-c2ccc3ncnc(NC(C)c4ccccc4)c3c2)cnc1OC (stereo not given) : NO
